Hey, just so you know, these numbers are from patent US4415730A.

Tested on: Staphylococcus aureus 0116
assay: MIC, Staphylococcus aureus 0116
Assay type: cell-based
measurementSetup: Staphylococcus aureus 0116; macrolide-resistant A group strain, clinical isolate; read-out: MIC
Source text: *Macrolide antibioticsresistant A group strain (clinical isolates of erythromycin, oleandomycin and 16member-ring-macrolide-resistant strain)
metric: MIC (µg/mL)

[[record]]
compound = "CCC1OC(=O)CC(O)C(C)C(OC2OC(C)C(O)C(N(C)C)C2O)C(C)CC(C)C(=O)C=CC(C)=CC1COC1OC(C)CC(OC)C1OC (stereo not shown) [Compound [1] R1 = OH, 19-deformyl-4\"-deoxy-desmycosin]"
censorsymbol = "="
endpointvalue = 3.1

[[record]]
compound = "CCC1OC(=O)CC(O)C(C)C(OC2OC(C)C(O)C(N(C)C)C2O)C(CC=O)CC(C)C(=O)/C=C/C(C)=C/C1COC1OC(C)C(O)C(OC)C1OC (stereo not shown)"
censorsymbol = "="
endpointvalue = 3.1

[[record]]
compound = "CCC1OC(=O)CC(O)C(C)C(OC2OC(C)CC(N(C)C)C2O)C(C)CC(C)C(=O)C=CC(C)=CC1COC1OC(C)C(O)C(OC)C1OC (stereo not shown) [Compound [1] R1 = H, 19-deformyl-4'-deoxy-desmycosin]"
censorsymbol = "="
endpointvalue = 0.8

[[record]]
compound = "CO[C@@H]1[C@@H](O[C@@H]2O[C@H](C)[C@@H](O[C@H]3C[C@@](C)(O)[C@@H](OC(=O)CC(C)C)[C@H](C)O3)[C@H](N(C)C)[C@H]2O)[C@@H](CC=O)C[C@@H](C)[C@@H](O)/C=C/C=C/C[C@@H](C)OC(=O)C[C@H]1OC(C)=O"
censorsymbol = ">"
endpointvalue = 100

